For each of the compounds below, state its inhibition at 10 µM.
system: Bel-7402; experiment: Antiproliferative activity against human Bel-7402 cells assessed as reduction in cell viability at 10 uM incubated for 72 hrs by MTT assay relative to control; format: functional
Please state the value followed by its unit.

# count of solved cases: 5
# item-smiles, system, inhibition at 10 µM
rows = [
    ("C=C1C(=O)[C@]23[C@H](OC(=O)CCC(=O)OCO/N=[N+](\\[O-])N4CCCC4)[C@H]1CC[C@H]2[C@@]12CO[C@@]3(O)[C@@H](O)[C@@H]1C(C)(C)CC[C@@H]2O", "Bel-7402", "93.2%"),
    ("C=C1C(=O)[C@]23[C@H](OC(=O)CCC(=O)OCO/N=[N+](\\[O-])N4CCOCC4)[C@H]1CC[C@H]2[C@@]12CO[C@@]3(O)[C@@H](O)[C@@H]1C(C)(C)CCC2=O", "Bel-7402", "93.1%"),
    ("C=C1C(=O)[C@]23[C@H](OC(=O)CCC(=O)OCO/N=[N+](\\[O-])N4CCOCC4)[C@H]1CC[C@H]2[C@@]12CO[C@@]3(O)[C@@H](O)[C@@H]1C(C)(C)CC[C@@H]2O", "Bel-7402", "93.3%"),
    ("C=C1C(=O)[C@]23[C@H](OC(=O)CCC(=O)OCO/N=[N+](\\[O-])N4CCOCC4)[C@H]1CC[C@H]2[C@@]12CO[C@@]3(O)[C@@H](O)[C@@H]1C(C)(C)CC[C@@H]2OC(C)=O", "Bel-7402", "94.5%"),
    ("C=C1C(=O)[C@]23[C@H](O)[C@H]1CC[C@H]2[C@@]12CO[C@]3(O)[C@@H](O)[C@@H]1C(C)(C)CC[C@@H]2O", "Bel-7402", "93.6%"),
]

Okay, here is my list. What is inhibition at 10 µM for each of these?
1. C=C1C(=O)[C@]23[C@H](OC(=O)CCCC(=O)OCO/N=[N+](\[O-])N4CCCC4)[C@H]1CC[C@H]2[C@@]12CO[C@@]3(O)[C@@H](O)[C@@H]1C(C)(C)CCC2=O
2. C=C1C(=O)[C@]23[C@H](OC(=O)CCCC(=O)OCO/N=[N+](\[O-])N4CCCC4)[C@H]1CC[C@H]2[C@@]12CO[C@@]3(O)[C@@H](O)[C@@H]1C(C)(C)CC[C@@H]2O
3. C=C1C(=O)[C@]23[C@H](OC(=O)CCCC(=O)OCO/N=[N+](\[O-])N4CCOCC4)[C@H]1CC[C@H]2[C@@]12CO[C@@]3(O)[C@@H](O)[C@@H]1C(C)(C)CC[C@@H]2O

Response:
1. 93.9%
2. 93.4%
3. 92.7%

For each listed entry, give its inhibition at 10 µM.
1. C=C1C(=O)[C@]23[C@H](OC(=O)CCCC(=O)OCO/N=[N+](\[O-])N4CCOCC4)[C@H]1CC[C@H]2[C@@]12CO[C@@]3(O)[C@@H](O)[C@@H]1C(C)(C)CCC2=O
2. C=C1C(=O)[C@]23[C@H](OC(=O)CCC(=O)OCO/N=[N+](\[O-])N4CCCC4)[C@H]1CC[C@H]2[C@@]12CO[C@@]3(O)[C@@H](O)[C@@H]1C(C)(C)CCC2=O

Response:
93.9%
93.6%

Where these numbers come from: ChEMBL document CHEMBL4715713
